System: ATP;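 note: ATP exposure 15 min at 22 °C before imaging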
Assay: switch fluorescence ratio, 500 uM ATP over buffer (Cy3 cluster intensity, sum of 5 cycles each) (fold (ratio)); higher = stronger signal-on switching upon ATP binding; sequences stand for … in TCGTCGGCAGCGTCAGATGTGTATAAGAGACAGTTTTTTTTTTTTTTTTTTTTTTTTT…TC
Settings: aptamer strand: ATP DNA aptamer (quencher-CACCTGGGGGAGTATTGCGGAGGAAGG + anchor), 100 nM annealed; ATP concentration: 500 uM
MEASUREMENT TYPE: switch fluorescence ratio
Write the value as a bare number.

Observed switch fluorescence ratio, ATP, CGGGTTAGGA : 1.02

Observed switch fluorescence ratio, ATP, GAGTGGAGTG : 1.02

Observed switch fluorescence ratio, ATP, TACTGGTATG : 1.03

Observed switch fluorescence ratio, ATP, GGGTGCAGCG : 0.993

Observed switch fluorescence ratio, ATP, TCTTGCTTC : 1.01

Observed switch fluorescence ratio, ATP, TCATTGTGCT : 0.975

Observed switch fluorescence ratio, ATP, TTGGGGCAGT : 0.997

Observed switch fluorescence ratio, ATP, AGGATGGTAA : 1

Observed switch fluorescence ratio, ATP, TCAAGTGAGG : 1.01

Observed switch fluorescence ratio, ATP, TTCATTGTTT : 1.01

Observed switch fluorescence ratio, ATP, ATATTTGATA : 1.01

Observed switch fluorescence ratio, ATP, GTGGGGTTAT : 1

Observed switch fluorescence ratio, ATP, GTTGGCAGTG : 0.978

Observed switch fluorescence ratio, ATP, GTATCAACGG : 1.03

Observed switch fluorescence ratio, ATP, ATGAATTTGT : 1.01

Observed switch fluorescence ratio, ATP, CTTCTGGGCG : 1.02

Observed switch fluorescence ratio, ATP, GACGCGCGTA : 1.01

Observed switch fluorescence ratio, ATP, CGAGTAGTCA : 0.994

Observed switch fluorescence ratio, ATP, AAGGCGGTCA : 1.01

Observed switch fluorescence ratio, ATP, TGCTAGACTG : 1.03

Observed switch fluorescence ratio, ATP, GGTGTGGCGT : 1
